Data provenance is PubChem BioAssay (NCI).

System: HOP-92 NSCLC
Assay: NCI tumour cell line growth inhibition, 48 h
READOUT NAME: TGI

Guide cases for TGI, answers given:
OC1(C23CC4CC(CC(C4)C2)C3)CSCC1(O)C12CC3CC(CC(C3)C1)C2 (stereo not drawn) : > 100 µM
CC1C(=O)N(c2ccccc2)NC12CCCc1ccccc12 (stereo not drawn) : > 100 µM

Now let's try a different one.
Query block: Consider the compound shown here: O=C1NC(=O)C(C(CC(=O)c2ccc([N+](=O)[O-])cc2)c2ccccc2)C(=O)N1 (stereo not drawn) What is its recorded TGI?
Result block: > 100 µM

* * *

Known TGI of a selection of molecules
System: NCI-H23 lung
Test: NCI tumour cell line growth inhibition, 48 h

O=C1c2cc3c(cc2[C@@H]2[C@H]1c1ccc([N+](=O)[O-])cc1C(=O)N2CCCBr)OCO3 : 0.0775 µM

Next item in the queue.
Query block: Sample "CC(=O)Nc1ccc(S(=O)(=O)N/N=C/CN2C(=O)c3ccccc3C2=O)cc1" — what was its TGI?
Result block: > 100 µM

* * *

Tested on: OVCAR-8 ovarian
Assay: NCI tumour cell line growth inhibition, 48 h
# maps each entry to its TGI
Give the value, in units of µM, as a plain number.

Below, each entry is followed by its recorded TGI result.
CC[C@@]1(O)C(=O)OCc2c1cc1n(c2=O)Cc2cc3cc4c(cc3nc2-1)OCO4 : 0.369
CCCCCCCCCCCCCCCC(=O)OCC1OC(n2cc(F)c(=O)[nH]c2=O)C(N)C(O)C1O (centres undefined) : 37.1
O=C(/C=C/Sc1cc(C(F)(F)F)cc(C(F)(F)F)c1)c1ccc(Cl)cc1 : 45.3

Query block: Give its TGI value. Item: C=C1CC2OC(=O)C(=C)C2C(O)C2C(=C)CCC12 (centres undefined)
Result block: 18

Query block: Sample CC(=O)NCCC1CN(C(=O)/C=C/I)c2ccccc21 (centres undefined) — what was its TGI?
Result block: 25.4

Query block: Please report the recorded TGI for "O=C1C(Cl)=C(OCCCl)C(=O)c2c(O)ccc(O)c21" .
Result block: 47.6

* * *

Below is a list of entries, each paired with its recorded TGI value.
Tested on: EKVX NSCLC
Assay: NCI tumour cell line growth inhibition, 48 h

Query block: Give EKVX NSCLC TGI for "O=C(O)CC[C@H](NC(=O)c1ccc(-n2nc3ccc(O)cc3nc2=O)cc1)C(=O)O"
Result block: > 100 µM

Query block: Field: TGI (EKVX NSCLC). Entry: "COc1cccc(CCN2CCN(CCCc3ccccc3)CC2)c1"
Result block: > 100 µM

Query block: Query TGI on EKVX NSCLC for "CC(C)=NN/C(=N\S(=O)(=O)c1ccc(Oc2cccc(Cl)c2C#N)cc1)Nc1ccc(Cl)cc1"
Result block: > 100 µM

* * *

Test system: SF-295 CNS
Assay: NCI tumour cell line growth inhibition, 48 h
READOUT NAME: TGI

Query block: # lookup: TGI of CSCCC(N)C(=O)NCCNc1ccc(NCCNC(=O)C(N)CCSC)c2c1C(=O)c1ccccc1C2=O (centres undefined)
Result block: 10.7 µM

* * *

# key: entry, value: TGI
Tested on: UO-31 renal
Test: NCI tumour cell line growth inhibition, 48 h

Worked cases, TGI given:
Nc1ccc(S(=O)(=O)c2ccc(NCN3C(=O)NC(=O)C(=O)C3=O)cc2)cc1 : > 100 µM
O=c1[nH]nc(-c2ccccc2)n1/N=C\c1ccccc1 : > 100 µM

Query block: // lookup TGI for C#CC#CC#CC#CC#CC#CC#CC#CCC1OCC(COC(=O)O[C@@H](C(=O)O[C@H]2C[C@@]3(O)[C@@H](OC(=O)c4ccccc4)[C@@H]4[C@]5(OC(C)=O)CO[C@@H]5C[C@H](O)[C@@]4(C)C(=O)[C@H](OC(C)=O)C(=C2C)C3(C)C)[C@@H](NC(=O)c2ccccc2)c2ccccc2)O1 (stereo partly specified)
Result block: > 33.3 µM

Query block: Which TGI is reported for this compound? "Cc1ccc([S@](=O)c2occc2C=O)cc1"
Result block: 23.2 µM

Query block: Fill blank: measured TGI of the compound CC(=O)OCC1OC(SC2=N/C(=C\c3ccc(Br)s3)C(=O)N2CN2CCOCC2)C(OC(C)=O)C(OC(C)=O)C1OC(C)=O (stereo unspecified) is ____.
Result block: 29.4 µM

Query block: Reported TGI, compound "OCCO/N=C1\C(c2c(O)[nH]c3ccccc23)=Nc2ccccc21" : ____
Result block: > 100 µM
